- Target Or System: Anoctamin-1 (Mus musculus) (UniProt Q8BHY3)
- Sequence (Q8BHY3 whole entry, looked up): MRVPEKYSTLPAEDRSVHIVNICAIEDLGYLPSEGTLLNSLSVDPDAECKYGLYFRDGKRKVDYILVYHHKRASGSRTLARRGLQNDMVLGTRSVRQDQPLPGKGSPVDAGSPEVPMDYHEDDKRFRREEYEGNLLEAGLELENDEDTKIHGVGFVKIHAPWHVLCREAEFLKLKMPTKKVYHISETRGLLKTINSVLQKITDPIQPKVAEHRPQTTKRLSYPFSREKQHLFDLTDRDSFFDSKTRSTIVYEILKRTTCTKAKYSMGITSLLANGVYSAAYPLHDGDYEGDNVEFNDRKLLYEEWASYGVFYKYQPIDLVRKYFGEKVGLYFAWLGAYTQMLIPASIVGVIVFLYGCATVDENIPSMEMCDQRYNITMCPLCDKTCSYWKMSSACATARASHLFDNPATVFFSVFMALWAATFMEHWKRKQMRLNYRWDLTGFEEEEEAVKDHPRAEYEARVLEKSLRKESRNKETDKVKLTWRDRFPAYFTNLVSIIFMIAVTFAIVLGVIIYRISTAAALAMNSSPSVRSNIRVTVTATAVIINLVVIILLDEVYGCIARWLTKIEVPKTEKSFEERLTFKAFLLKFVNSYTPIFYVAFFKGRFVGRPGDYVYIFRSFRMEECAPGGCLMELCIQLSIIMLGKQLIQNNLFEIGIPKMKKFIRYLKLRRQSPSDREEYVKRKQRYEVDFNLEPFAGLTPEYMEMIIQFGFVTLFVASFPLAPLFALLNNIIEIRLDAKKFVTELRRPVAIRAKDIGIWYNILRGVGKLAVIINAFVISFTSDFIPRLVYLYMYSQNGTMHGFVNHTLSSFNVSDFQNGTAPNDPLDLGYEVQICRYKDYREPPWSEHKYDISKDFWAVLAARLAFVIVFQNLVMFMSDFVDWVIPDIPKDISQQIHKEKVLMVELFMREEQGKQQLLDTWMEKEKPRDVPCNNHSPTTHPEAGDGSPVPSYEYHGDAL
- Run Description: blockers of mouse ANO1 Ca-activated Cl channel – cell-based, HTS, primary screen (AID 588511);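 as to normalized B-score (activity score, 25-100; higher = stronger inhibition): score derived from kinetic fluorescence span divided by baseline fluorescence per well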
- Measurement Context: HEK293 TMEM16A/YFP iodide influx fluorescence, ionomycin; at 10 µM
The campaign covered roughly 310,000 compounds. About 3,600 (1.2%) were called active. What follows is part of a selection rich in actives, with near analogues and random picks from the rest.
Property Name: normalized B-score (activity score, 25-100; higher = stronger inhibition)

Solved cases below.
IN: Param item = O=C(NCc1ccc2c(c1)OCO2)c1cc(F)c(F)cc1Cl ; retrieve measured normalized B-score (activity score, 25-100; higher = stronger inhibition).
OUT: inactive

IN: Similarly, COc1ccccc1NC(=O)CCCc1c[nH]c2ccccc12 ?
OUT: inactive

IN: Similarly, CN(C)/N=C/c1cc(Cl)cc([N+](=O)[O-])c1O ?
OUT: inactive

IN: Similarly, CCCCn1ccnc1C(=O)c1cccc(S(=O)(=O)N2c3ccccc3CC2C)c1 (configuration not stated) ?
OUT: 25 (active)

IN: Similarly, CCOC(=O)C1=C(CN2CCc3ccccc32)NC(=O)NC1c1cccc([N+](=O)[O-])c1 (configuration not stated) ?
OUT: 25 (active)

Others:
IN: Param item = O=C(/C=C/c1ccc(F)cc1)Nc1cccc(S(=O)(=O)Nc2cccc(C(F)(F)F)c2)c1 ; retrieve measured normalized B-score (activity score, 25-100; higher = stronger inhibition).
OUT: inactive

IN: Similarly, CN(C)c1ccc(/C=C2\NC(=S)N(Cc3ccccc3)C2=O)cc1 ?
OUT: inactive

IN: Similarly, O=C(N/N=C/c1cc(Br)c(O)c([N+](=O)[O-])c1)C(O)(c1ccccc1)c1ccccc1 ?
OUT: inactive

IN: Similarly, Cc1nc(CNS(=O)(=O)c2ccc(Oc3ccccc3)cc2)cs1 ?
OUT: 100 (active)

IN: Similarly, Cc1ccc(S(=O)(=O)NCc2csc(C)n2)c(C)c1 ?
OUT: inactive

IN: Similarly, CC1Cc2ccccc2N1S(=O)(=O)c1ccc(Cl)nc1 (configuration not stated) ?
OUT: inactive

IN: Similarly, CCOC(=O)C1=C(CN2CCCCCC2)NC(=O)NC1c1cccc([N+](=O)[O-])c1 (configuration not stated) ?
OUT: inactive

IN: Similarly, C=CCn1c(SCC(=O)Nc2nc3ccccc3s2)nnc1-c1ccccc1O ?
OUT: 100 (active)

IN: Similarly, O=S(=O)(ON(c1ccccc1)S(=O)(=O)c1ccccc1)c1ccccc1 ?
OUT: inactive

IN: Similarly, CC1=C(C(=O)NC2CC(C)(C)Cc3c2cnn3-c2ccc(C)cc2)OCCO1 (configuration not stated) ?
OUT: inactive

IN: Similarly, COc1cc(SC#N)ccc1N=Cc1c(C)[nH]n(-c2ccc(C)cc2)c1=O ?
OUT: inactive

IN: Similarly, CN(C)c1cc[n+](Cc2ccccc2)cc1 ?
OUT: 25 (active)

IN: Similarly, O=C(COC(=O)c1ncc(Cl)c(Cl)c1Cl)NNC(=O)c1ccccc1 ?
OUT: inactive

IN: Similarly, CCC(=O)c1ccc(OCC(=O)Nc2ccc3nc(C)sc3c2)cc1 ?
OUT: inactive

IN: Similarly, Cc1ccc(-n2[nH]c(C)c(/C=N/N3C(=O)c4cccc5cccc(c45)C3=O)c2=O)cc1 ?
OUT: 100 (active)

IN: Similarly, S=C(NCC1CCCO1)N1CCN(c2ccc(Cl)c(Cl)c2)CC1 (configuration not stated) ?
OUT: 100 (active)
